Source of measurements: patent US20240067632A1

experimental-system: WEE1 (Homo sapiens, UniProt P30291+Q96SW2)
Construct: C-terminal ePL-tagged (DiscoverX, Fremont, CA) full-length WEE1 expression construct; expressed in transfected cells; host or cells: LentiX-HEK293T (Invitrogen), lentiviral transduction; co-expressing GSPT1-GN (G576N, lacking the first 158 amino acids)
assay-details: WEE1-ePL degradation assay (LentiX-WEE1-ePL-GSPT1-ND cells, InCELL Hunter luminescence, 4 h)
Type: cell-based
conditions: 293T-LentiX WEE1-ePL cells, lower limit of the fit (0 = luciferase inhibitor, Ymax = DMSO control)
Tick class 1 if 293T-LentiX WEE1-ePL Degradation 4 hr (Ymin) is 30 or greater. Tick class 0 if 293T-LentiX WEE1-ePL Degradation 4 hr (Ymin) is less than 30.

>>> assigned_label("CC(C)(O)c1ccc2cc(CN3CC[C@H](Oc4ccc5c(c4)CN(C4CCC(=O)NC4=O)C5=O)C3)ccc2n1 (stereo partly shown)")
"class 1"
>>> assigned_label("COC[C@H]1CC[C@@H](c2ccc3cc(CN4CC[C@H](Oc5ccc6c(c5)CN(C5CCC(=O)NC5=O)C6=O)C4)ccc3n2)CC1 (stereo partly shown)")
"class 0"
>>> assigned_label("N#Cc1ccc2cc(CN3CC[C@H](Oc4cc(F)c5c(c4)CN(C4CCC(=O)NC4=O)C5=O)C3)ccc2n1 (stereo partly shown)")
"class 1"
>>> assigned_label("C[C@@H]1CN(Cc2ccc3nc(C4CCOCC4)ccc3c2)C[C@H]1Oc1ccc2c(c1)CN(C1CCC(=O)NC1=O)C2=O (stereo partly shown)")
"class 0"
>>> assigned_label("O=C1CCC(N2Cc3cc(O[C@H]4CCN(Cc5ccc6cnncc6c5)C4)ccc3C2=O)C(=O)N1 (stereo partly shown)")
"class 1"
>>> assigned_label("O=C1CCC(N2Cc3cc(O[C@H]4CCN(Cc5ccc6nc(N7CCC[C@@]78CCOC8)ccc6c5)C4)ccc3C2=O)C(=O)N1 (stereo partly shown)")
"class 1"
